target-entity: Prostaglandin D2 receptor 2 (Homo sapiens)
assay-details: Antagonist activity at human CRTH2 receptor expressed in HEK285-7 cells assessed as inhibition of beta arrestin translocation by bioluminescence resonance energy transfer assay
Assay type: functional, cell-based
property-label: IC50 (nM)

Solved entries:
COc1ccccc1Nc1nc(-c2ccc(Oc3ccccc3)cc2)c(CC(=O)O)s1; 480
COc1ccc(Cc2nc(-c3ccccc3)c(CC(=O)O)s2)cc1OC; 3800
Cc1ccc(Cc2nc(-c3ccccc3)c(CC(=O)O)s2)cc1; 1800
O=C(O)Cc1sc(Nc2ccc(F)cc2)nc1-c1ccc(Oc2ccccc2)cc1; 540
O=C(O)Cc1sc(-c2ccccc2)nc1-c1ccc(-c2ccccc2)cc1; 630

P = COc1ccccc1Nc1nc(-c2ccc(Cl)cc2)c(CC(=O)O)s1
Q = O=C(O)Cc1sc(Nc2ccc(Cl)cc2)nc1-c1ccc(-c2ccccc2)cc1
Between P and Q , which one shows the larger IC50 value? The response must carry the label of the picked entry.
Q

P = O=C(O)Cc1sc(Cc2ccccc2)nc1-c1ccc(Cl)cc1
Q = O=C(O)Cc1sc(Nc2ccc3ccccc3c2)nc1-c1ccc(Br)cc1
Task for the reader: decide whether P or Q has the larger IC50. Provide the label of your selected option as the answer.
P
(P: 4100 nM, Q: 370 nM)

a = CCc1ccc(-c2nc(-c3ccccc3)sc2CC(=O)O)cc1
b = O=C(O)Cc1sc(-c2ccc(Oc3ccccc3)cc2)nc1-c1ccccc1
From the recorded data, which exceeds the other in IC50: a or b ? Label of pick, please.
b
(b: 660 nM, a: 350 nM)

----------
target-entity: Prostaglandin D2 receptor 2 (Homo sapiens) (UniProt Q9Y5Y4)
Sequence (Q9Y5Y4 whole entry): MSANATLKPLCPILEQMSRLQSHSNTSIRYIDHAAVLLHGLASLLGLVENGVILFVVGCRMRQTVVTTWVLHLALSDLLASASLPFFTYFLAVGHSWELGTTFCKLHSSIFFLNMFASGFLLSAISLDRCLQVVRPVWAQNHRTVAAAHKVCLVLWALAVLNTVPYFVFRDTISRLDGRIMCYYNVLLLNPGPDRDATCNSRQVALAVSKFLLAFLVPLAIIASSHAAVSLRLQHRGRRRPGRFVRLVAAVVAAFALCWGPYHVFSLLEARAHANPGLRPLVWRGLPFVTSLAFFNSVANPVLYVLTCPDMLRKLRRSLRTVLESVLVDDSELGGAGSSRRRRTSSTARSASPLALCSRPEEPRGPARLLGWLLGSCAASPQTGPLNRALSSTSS
assay-details: Antagonist activity at human CRTH2 receptor expressed in HEK285-7 cells assessed as inhibition of beta arrestin translocation by bioluminescence resonance energy transfer assay relative to control
Format: functional, cell-based
property-label: Efficacy

Examples from the recorded data:
O=C(O)Cc1sc(Nc2ccccc2)nc1-c1ccc(-c2ccccc2)cc1; > 70%
O=C(O)Cc1sc(Nc2ccc3ccccc3c2)nc1-c1ccc(Oc2ccccc2)cc1; 20%
COc1ccc(-c2nc(-c3ccc(Br)cc3)c(CC(=O)O)s2)cc1; > 70%

Turning now to a further compound:
Look at this compound and give its reported Efficacy. O=C(O)Cc1sc(Nc2ccccc2F)nc1-c1ccc(Oc2ccccc2)cc1
> 70%

----------
target-entity: Prostaglandin D2 receptor 2 (Homo sapiens, UniProt Q9Y5Y4)
Sequence (Q9Y5Y4 whole entry): as above
assay-details: Displacement of[3H]PGD2 from human CRTH2 receptor expressed in african green monkey COS7 cells
Type: cell-based, COS-7
pIC50: −log10 of the molar value.
property-label: pIC50

COc1ccccc1Nc1nc(-c2ccc(Cl)cc2)c(CC(=O)O)s1; 6.35

1 = O=C(O)Cc1sc(Cc2ccc(Cl)cc2)nc1-c1ccccc1
2 = COc1ccc(-c2nc(Cc3ccc(Cl)cc3)sc2CC(=O)O)cc1
3 = O=C(O)Cc1sc(-c2ccc(Oc3ccccc3)cc2)nc1-c1ccccc1
4 = COc1ccccc1Nc1nc(-c2ccc(F)cc2)c(CC(=O)O)s1
Give the ascending ranking of the items by reported pIC50. Your answer should be the labels, listed in the requested order.
4, 2, 3, 1

a = O=C(O)Cc1sc(Cc2ccccc2)nc1-c1ccc(F)cc1
b = O=C(O)Cc1sc(Nc2ccccc2)nc1-c1ccc(-c2ccccc2)cc1
Select one. Lower pIC50: a or b Record your answer as the label of the chosen record.
b

I = O=C(O)Cc1sc(Nc2ccc3ccccc3c2)nc1-c1ccc(Br)cc1
II = O=C(O)Cc1sc(Nc2ccccc2)nc1-c1ccc(Cl)cc1
Which numeric pIC50 is bigger, that of I or that of II ? Reply briefly: the label of your chosen item.
II
(II: 7.00, I: 6.66)

P = COc1ccc(-c2nc(-c3ccc(OC)cc3)c(CC(=O)O)s2)cc1
Q = Cc1ccc(Nc2nc(-c3ccc(Cl)cc3)c(CC(=O)O)s2)cc1
R = O=C(O)Cc1sc(Cc2ccc3ccccc3c2)nc1-c1ccc(Cl)cc1
S = O=C(O)Cc1sc(Cc2ccccc2-c2ccccc2)nc1-c1ccc(F)cc1
T = COc1ccccc1-c1ccccc1Cc1nc(-c2ccc(F)cc2)c(CC(=O)O)s1
List the 5 entries from lowest pIC50 to highest pIC50 value. Please express your ranking as an ordered list of the labels.
P, Q, T, R, S
(P: 5.39, Q: 6.12, T: 6.77, R: 7.39, S: 7.62)

----------
target-entity: Prostaglandin D2 receptor 2 (Homo sapiens, UniProt Q9Y5Y4)
assay-details: Displacement of[3H]PGD2 from human CRTH2 receptor expressed in african green monkey COS7 cells
Assay type: cell-based, COS-7
property-label: IC50 (µM)

Look over these answered cases.
O=C(O)Cc1sc(Cc2ccccc2-c2ccccc2)nc1-c1ccc(Cl)cc1; 0.041
COc1ccc(Nc2nc(-c3ccccc3)c(CC(=O)O)s2)cc1; 0.94
O=C(O)Cc1sc(Cc2ccccc2-c2ccc3c(c2)OCO3)nc1-c1ccc(F)cc1; 0.024
COc1ccc(-c2ccccc2Cc2nc(-c3ccc(F)cc3)c(CC(=O)O)s2)cc1; 0.072
COc1ccc(-c2nc(Nc3ccccc3)sc2CC(=O)O)cc1; 1.9

P = Cc1ccc(Cc2nc(-c3ccccc3)c(CC(=O)O)s2)cc1
Q = O=C(O)Cc1sc(Cc2ccccc2Br)nc1-c1ccc(F)cc1
// which entry has the larger IC50 value, P or Q ? Indicate your choice by writing its label.
Q
(Q: 0.7 µM, P: 0.25 µM)

I = O=C(O)Cc1sc(Nc2ccccc2F)nc1-c1ccc(Oc2ccccc2)cc1
II = O=C(O)Cc1sc(Nc2ccc(F)cc2)nc1-c1ccc(Oc2ccccc2)cc1
Pick one: I or II . Which one has the lower reported IC50? Respond with the label that goes with your answer.
II

I = COc1ccc(-c2nc(-c3ccc(Cl)cc3)sc2CC(=O)O)cc1
II = O=C(O)Cc1sc(Nc2ccccc2)nc1-c1ccc(Oc2ccccc2)cc1
III = O=C(O)Cc1sc(Nc2ccc(C(F)(F)F)cc2)nc1-c1ccc(Cl)cc1
IV = O=C(O)Cc1sc(Cc2ccc(Cl)cc2)nc1-c1ccc(Cl)cc1
List by increasing IC50. # list labels per requested ordering
IV, II, I, III
(IV: 0.05 µM, II: 0.084 µM, I: 0.21 µM, III: 0.7 µM)

A = O=C(O)Cc1sc(Cc2ccccc2)nc1-c1ccc(Cl)cc1
B = CCc1ccc(-c2nc(-c3ccccc3)sc2CC(=O)O)cc1
Lower value for measured IC50? Options: A , B Record your answer as the label of the chosen record.
A

----------
target-entity: Prostaglandin D2 receptor 2 (Homo sapiens)
assay-details: Antagonist activity at human CRTH2 receptor expressed in HEK285-7 cells assessed as inhibition of beta arrestin translocation by bioluminescence resonance energy transfer assay
Type: functional, cell-based
property-label: IC50 (nM)

Below, 2 compounds whose answers are already recorded.
CC(C)c1ccc(Nc2nc(-c3ccc(Cl)cc3)c(CC(=O)O)s2)cc1; 16000
O=C(O)Cc1sc(Nc2ccc(Cl)cc2)nc1-c1ccc(F)cc1; 1900

a = O=C(O)Cc1sc(Nc2ccc3ccccc3c2)nc1-c1ccc(Oc2ccccc2)cc1
b = COc1ccc(-c2nc(-c3ccccc3)sc2CC(=O)O)cc1
c = O=C(O)Cc1sc(-c2ccc(Cl)cc2)nc1-c1ccccc1
Write the entries in order, lowest recorded IC50 first. State the ranking by listing the labels in the requested order.
a, c, b
(a: 260 nM, c: 1600 nM, b: 5000 nM)

I = O=C(O)Cc1sc(-c2ccccc2)nc1-c1ccc(Cl)cc1
II = COc1ccc(-c2nc(-c3ccc(Oc4ccccc4)cc3)sc2CC(=O)O)cc1
III = O=C(O)Cc1sc(Cc2ccc(Cl)cc2)nc1-c1ccc(Oc2ccccc2)cc1
IV = O=C(O)Cc1sc(-c2ccccc2)nc1-c1ccccc1
V = O=C(O)Cc1sc(Cc2ccc3ccccc3c2)nc1-c1ccc(Cl)cc1
Order each entry by recorded IC50, climbing from the minimum. Response format: the labels, sorted as the prompt asks.
III, V, I, II, IV
(III: 66 nM, V: 570 nM, I: 960 nM, II: 1600 nM, IV: 2500 nM)

A = COc1ccc(-c2nc(Cc3ccc(Cl)cc3)sc2CC(=O)O)cc1
B = O=C(O)Cc1sc(Nc2ccccc2)nc1-c1ccc(F)cc1
Which numeric IC50 is bigger, that of A or that of B ? Mark your selection by writing its label.
B
(B: 1300 nM, A: 850 nM)

1 = O=C(O)Cc1sc(-c2ccc(Oc3ccccc3)cc2)nc1-c1ccc(Cl)cc1
2 = COc1ccc(-c2nc(Nc3ccccc3)sc2CC(=O)O)cc1
3 = O=C(O)Cc1sc(-c2ccccc2)nc1-c1ccc(F)cc1
Please order the records by their reported IC50, lowest number first. # list labels per requested ordering
1, 2, 3
(1: 1300 nM, 2: 2400 nM, 3: 3500 nM)
